- Tested on: A. retroflexus
- procedure_summary: Herbicidal activity by field soil treatment (Test example 2)
- Type: in vivo
- Design: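 index 0 to 10 in 10% steps of herbicidal effect with 10 meaning complete death and 0 below 10%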
- test_conditions: 1000 g effective component per hectare, day 21 after the treatment
value_kind: herbicidal effect index, Amaranthus retroflexus
# output: bare number, no unit

Some entries whose results are on file:
Cc1ccc(-n2c(=O)c(C(=O)C3=C(O)CCCC3=O)nn(C)c2=O)cc1F: 10
Cc1cc(-n2c(=O)c(C(=O)C3=C(O)CCCC3=O)nn(C)c2=O)ccc1F: 9
Cn1nc(C(=O)C2=C(O)CCCC2=O)c(=O)n(N2CCSCC2)c1=O: 7
CC1CC(C)(C)C(=O)C(C(=O)c2nn(C)c(=O)n(-c3ccccc3)c2=O)=C1O (stereo not drawn): 10
Cn1nc(C(=O)O)c(=O)n(CC(=O)C(C)(C)C)c1=O: 7

Consider the additional compound presented here.
[Q] Find the measured herbicidal effect index, Amaranthus retroflexus: item Cn1nc(C(=O)C2=C(O)C(C)(C)C(=O)C(C)(C)C2=O)c(=O)n(-c2ccccc2)c1=O , target or system A. retroflexus.
[A] 10
